- assay target: Protein kinase C (PKC) (Homo sapiens) (UniProt O94806+P41743+P17252+P05129+Q05655+P05771+Q05513+Q02156+P24723+Q15139+Q04759)
- experiment description: Inhibition of Protein kinase C at 50 uM
- Type: protein assay
Binary classification by inhibition, with 20% as an inclusive lower bound for Y; all other cases are N.

Please check the record C[C@H](Nc1ncnc2c1sc1ccccc12)c1ccccc1 and state if its inhibition is at or above 20%.
N

I'd appreciate it if you could say whether Cc1cccc(Nc2ncnc3c2sc2ccc(N)cc23)c1 has inhibition at least equal to 20%.
Y

Evaluate Brc1cccc(Nc2ncnc3c2sc2ccccc23)c1 : inhibition at minimum 20%?
N

# check: inhibition of Nc1ccc2sc3c(Nc4cccc(C(F)(F)F)c4)ncnc3c2c1 is greater than or equal to 20%
Y

// inclusive: inhibition at least 20%? input: Nc1ccc2sc3c(Nc4cccc(Br)c4)ncnc3c2c1
N
